protocol.notes: Growth inhibition of human U373 cells after 72 hrs by MTT assay
Type: functional, cell-based, U-373MG ATCC
settings: U373 MG
pIC50: −log10 of the molar value.
# label = Criterion met if pIC50 >= 5 else Criterion not met

CC1(C)CC(NC(=S)Nc2cccc(C#N)c2)c2cc(Br)ccc2O1 (stereo unspecified) = Criterion met
CC1(C)CC(NC(=S)NCc2ccccc2)c2cc(Br)ccc2O1 (stereo unspecified) = Criterion not met
CC1(C)CC(NC(=O)Nc2ccc(Cl)cc2)c2cc(F)ccc2O1 (stereo unspecified) = Criterion not met
CC1(C)CC(NC(=O)Nc2ccc(Cl)cc2)c2cc(Br)ccc2O1 (stereo unspecified) = Criterion not met
CC1(C)CC(NC(=S)Nc2ccc([N+](=O)[O-])cc2)c2cc(F)ccc2O1 (stereo unspecified) = Criterion met

----------
System: T98G
protocol.notes: Growth inhibition of human T98G cells after 72 hrs by MTT assay
Assay type: functional, cell-based
IC50 for assorted molecules
observation.type: IC50 (µM)

CC1(C)CC(NC(=S)Nc2cccc(Cl)c2)c2cc(Br)ccc2O1 (stereo not given) = 9
CC1(C)CC(NC(=S)Nc2ccc(C#N)cc2)c2cc(Br)ccc2O1 (stereo not given) = 24
CC1(C)CC(NC(=S)Nc2ccc([N+](=O)[O-])cc2)c2cc(F)ccc2O1 (stereo not given) = 5
CC1(C)CC(NC(=S)Nc2cccc([N+](=O)[O-])c2)c2cc(F)ccc2O1 (stereo not given) = 9
CC1(C)CC(NC(=S)Nc2cccc([N+](=O)[O-])c2)c2cc(Cl)ccc2O1 (stereo not given) = 4
CC1(C)CC(NC(=S)Nc2ccccc2Cl)c2cc(Br)ccc2O1 (stereo not given) = 8
CC1(C)CC(NC(=O)Nc2cccc(Cl)c2)c2cc(Br)ccc2O1 (stereo not given) = 67
COc1ccc(NC(=S)NC2CC(C)(C)Oc3ccc(Br)cc32)cc1 (stereo not given) = 33
CC1(C)CC(NC(=O)Nc2ccc(Cl)cc2)c2cc(Br)ccc2O1 (stereo not given) = 27
COc1ccc(Cl)cc1CNC(=S)Nc1ccc([N+](=O)[O-])cc1 = 35
CC1(C)CC(NC(=O)Nc2ccccc2Cl)c2cc(F)ccc2O1 (stereo not given) = 27
CC1(C)CC(NC(=S)Nc2ccc(C#N)cc2)c2cc(F)ccc2O1 (stereo not given) = 19
CC1(C)CC(NC(=S)Nc2cccc(C#N)c2)c2cc(Br)ccc2O1 (stereo not given) = 9
COc1cccc(NC(=S)NC2CC(C)(C)Oc3ccc(Br)cc32)c1 (stereo not given) = 87
O=[N+]([O-])c1cccc(NC(=S)NCc2cccc(Cl)c2)c1 = 61
O=[N+]([O-])c1cccc(NC(=S)NC2CCOc3ccc(Cl)cc32)c1 (stereo not given) = 10
CC1(C)CC(NC(=S)Nc2cccc(C#N)c2)c2cc(F)ccc2O1 (stereo not given) = 39
CC1(C)CC(NC(=O)Nc2ccccc2)c2cc(Cl)ccc2O1 (stereo not given) = 34
CC1(C)CC(NC(=S)Nc2ccc(Cl)cc2)c2cc(Br)ccc2O1 (stereo not given) = 22

----------
protocol.notes: Growth inhibition of human U373 cells after 72 hrs by MTT assay
Format: functional, cell-based, U-373MG ATCC
settings: U373 MG
observation.type: IC50 (µM)

CC1(C)CC(NC(=S)Nc2cccc(C#N)c2)c2cc(Cl)ccc2O1 (configuration not stated) = 7
CC1(C)CC(NC(=O)Nc2ccccc2Cl)c2cc(Br)ccc2O1 (configuration not stated) = 19
CC1(C)CC(NC(=S)Nc2ccc(C#N)cc2)c2cc(Cl)ccc2O1 (configuration not stated) = 10
CC1(C)CC(NC(=S)Nc2ccc(C#N)cc2)c2cc(Br)ccc2O1 (configuration not stated) = 22
CC1(C)CC(NC(=S)Nc2cccc([N+](=O)[O-])c2)c2cc(Br)ccc2O1 (configuration not stated) = 4

----------
protocol.notes: Growth inhibition of human U373 cells after 72 hrs by MTT assay
Type: functional, cell-based, U-373MG ATCC
settings: U373 MG
pIC50: −log10 of the molar value.
Reported pIC50 values are given for each entry in this list.
observation.type: pIC50

CC(C)NC(=S)NC1CC(C)(C)Oc2ccc(Cl)cc21 (stereo unspecified) = 4.24
CC1(C)CC(NC(=S)Nc2ccccc2Cl)c2cc(Br)ccc2O1 (stereo unspecified) = 4.47
CC1(C)CC(NC(=O)NS(=O)(=O)c2ccccc2)c2cc(Cl)ccc2O1 (stereo unspecified) = 4.02
COc1ccc(Cl)cc1CNC(=S)Nc1ccc([N+](=O)[O-])cc1 = 4.66
CC1(C)CC(NC(=O)Nc2ccccc2)c2cc(Cl)ccc2O1 (stereo unspecified) = 4.17
CC1(C)CC(NC(=O)NCc2ccccc2)c2cc(Cl)ccc2O1 (stereo unspecified) = 4.18
CC(C)NC(=O)NC1CC(C)(C)Oc2ccc(Cl)cc21 (stereo unspecified) = 4.21
COc1cccc(NC(=S)NC2CC(C)(C)Oc3ccc(Br)cc32)c1 (stereo unspecified) = 4.18

----------
Measured IC50, listed per entry.
protocol.notes: Growth inhibition of human U373 cells after 72 hrs by MTT assay
Format: functional, cell-based, U-373MG ATCC
settings: U373 MG
observation.type: IC50

CCC(C)(C)NC1=NS(=O)(=O)c2cc(Cl)ccc2N1 = > 100 µM
CC(C)NC1=NS(=O)(=O)c2cc(F)c(Cl)cc2N1 = > 100 µM
CC(N/C(=N\C#N)Nc1ccncc1)C(C)(C)C (stereo not drawn) [PINACIDIL ANHYDROUS] = > 100 µM

# credit: ChEMBL document CHEMBL2040777
